test system: RmuAP1CD; experiment: Effects of chemicals; assay type: biochemical, Rhodotorula mucilaginosa; conditions: same test as Table 1; preincubation 37 °C, 3 h; BSA, pH 2.5
Measured property: Effect on the proteolytic activity of RmuAP1CD (in words)

{"Compound": "O=C(O)CN(CCN(CC(=O)O)CC(=O)O)CC(=O)O", "Measurement": "unaffected"}
{"Compound": "O=S(=O)(F)Cc1ccccc1 [PMSF, phenylmethylsulfonyl fluoride]", "Measurement": "unaffected"}
